Biological target: Renin (Homo sapiens, UniProt P00797)
Sequence (P00797 whole entry): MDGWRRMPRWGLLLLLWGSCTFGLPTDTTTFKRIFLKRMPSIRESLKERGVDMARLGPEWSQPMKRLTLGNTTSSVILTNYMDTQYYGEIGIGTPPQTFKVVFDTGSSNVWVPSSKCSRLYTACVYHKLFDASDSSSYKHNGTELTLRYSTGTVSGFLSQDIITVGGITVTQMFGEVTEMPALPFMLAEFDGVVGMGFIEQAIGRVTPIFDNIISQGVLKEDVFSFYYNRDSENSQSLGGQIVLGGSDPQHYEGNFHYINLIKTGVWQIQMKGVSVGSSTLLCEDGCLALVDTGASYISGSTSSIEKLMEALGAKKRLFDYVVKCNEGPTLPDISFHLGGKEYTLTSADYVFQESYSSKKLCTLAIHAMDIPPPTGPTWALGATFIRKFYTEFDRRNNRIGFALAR
Test: In vitro inhibitory activity against renin from lyophilized human plasma
Format: cell-free
# key: entry, value: IC50

# Compound, IC50, µM
data = [
    ("CC(C)[C@H](NC(=O)[C@H](Cc1ccccc1)NC(=O)[C@H](Cc1ccccc1)NC(=O)[C@H](Cc1cnc[nH]1)NC(=O)[C@H](Cc1ccccc1)NC(=O)[C@H]1CCCN1C(=O)[C@H](Cc1cnc[nH]1)NC(=O)[C@H]1CCCN1)C(=O)N[C@@H](Cc1ccc(O)cc1)C(=O)N[C@H](CCCCN)C(=O)O", 10),
    ("CC[C@@H](C)[C@H](NC(=O)[C@H](Cc1ccccc1)NC(=O)[C@H](Cc1ccccc1)NC(=O)[C@H](Cc1cnc[nH]1)NC(=O)[C@H](Cc1ccccc1)NC(=O)[C@H]1CCCN1C(=O)[C@H](Cc1cnc[nH]1)NC(=O)[C@H]1CCCN1)C(=O)N[C@@H](Cc1cnc[nH]1)C(=O)N[C@H](CCCCN)C(=O)O", 170),
    ("CC[C@@H](C)[C@H](NC(=O)[C@H](C(C)C)[S+]([O-])C[C@H](CC(C)C)NC(=O)[C@H](Cc1c[nH]cn1)NC(=O)[C@H](Cc1ccccc1)NC(=O)[C@H]1CCCN1C(=O)[C@H](Cc1c[nH]cn1)NC(=O)[C@H]1CCCN1)C(=O)N[C@@H](Cc1c[nH]cn1)C(=O)N[C@H](CCCCN)C(=O)O (stereo partly drawn)", 2.5),
]

Just for reference, ChEMBL document CHEMBL1124153 is where these values come from.
